For each record, write down the corresponding IC50.
Tested target: KRAS G12D (Homo sapiens (Human), UniProt P01116+P62937, G12D)
Sequence (P01116-2 other isoform, or with tags, fused parts or gaps G12D): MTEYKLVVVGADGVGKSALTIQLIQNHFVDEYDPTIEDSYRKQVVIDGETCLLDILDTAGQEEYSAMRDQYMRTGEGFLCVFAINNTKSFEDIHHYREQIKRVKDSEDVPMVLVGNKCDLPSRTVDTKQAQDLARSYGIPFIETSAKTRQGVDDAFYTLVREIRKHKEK
Sequence (P62937 whole entry): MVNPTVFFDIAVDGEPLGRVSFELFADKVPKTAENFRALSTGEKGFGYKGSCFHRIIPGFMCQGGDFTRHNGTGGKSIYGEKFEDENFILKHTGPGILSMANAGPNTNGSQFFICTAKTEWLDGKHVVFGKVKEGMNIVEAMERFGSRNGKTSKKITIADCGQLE
Test: Ras-Raf (BRAF RBD) disruption / FRET / MOA assay, KRAS G12D
Type: biochemical
Conditions: Ras-Raf disruption/FRET/MOA assay; class symbols; read-out: KRAS G12D FRET data IC50

### Prompt So what IC50 did C=CC(=O)NC[C@H]1CCN1C(=O)N(C)[C@H](C(=O)N[C@H]1Cc2nc(cs2)-c2ccc3c(c2)c(c(-c2cccnc2[C@H](C)OC)n3CC)CC(C)(C)COC(=O)[C@@H]2CCCN(N2)C1=O)C(C)C (atropisomer, axis not shown) [Example A356] get with KRAS G12D (Homo sapiens (Human), UniProt P01116+P62937, G12D)?
### Response 1 to 10 µM

### Prompt Lookup C=CC(=O)N1CC[C@H](C(=O)N(C)[C@H](C(=O)N[C@H]2Cc3nc(cs3)-c3ccc4c(c3)c(c(-c3cccnc3[C@H](C)OC)n4CC)CC(C)(C)CCC[C@@H]3CCCN(N3)C2=O)C(C)C)C1 (atropisomer, axis not shown) [Example A288]
### Response > 10 µM

### Prompt Again, but for C=CC(=O)N1CC2(CCN2C(=O)N(C)[C@H](C(=O)N[C@H]2Cc3cccc(n3)-c3ccc4c(c3)c(c(-c3cccnc3[C@H](C)OC)n4CC)CC(C)(C)COC(=O)[C@@H]3CCCN(N3)C2=O)C(C)C)C1 (atropisomer, axis not shown) [Example A636]
### Response 1 to 10 µM

### Prompt Queued: C=CC(=O)N1CCN(C(=O)N(C)[C@H](C(=O)N[C@H]2Cc3nc(cs3)-c3ccc4c(c3)c(c(-c3cccnc3[C@H](C)OC)n4CC)CC(C)(C)COC(=O)[C@@H]3CCCN(N3)C2=O)C(C)C)CC1 (atropisomer, axis not shown) [Example A491]
### Response 0.1 to 1 µM

### Prompt Now this one: CCn1c(-c2cccnc2[C@H](C)OC)c2c3cc(ccc31)-c1cnc(o1)C[C@H](NC(=O)[C@@H](COC1CN(C(=O)C#CC(C)(C)N(C)C)C1)C(C)C)C(=O)N1CCC[C@H](N1)C(=O)OCC(C)(C)C2 (atropisomer, axis not shown) [Example A649]
### Response > 10 µM

### Prompt C=CC(=O)N1CC[C@H](C(=O)N(C)[C@H](C(=O)N[C@H]2Cc3cc(O)cc(c3)-c3ccc4c(c3)c(c(-c3cccc(=O)n3C(C)C)n4CC)CC(C)(C)COC(=O)[C@@H]3CCCN(N3)C2=O)C(C)C)C1 [Example A151] ?
### Response > 10 µM

### Prompt Please give the result for CCn1c(-c2cccnc2[C@H](C)OC)c2c3cc(ccc31)-c1csc(n1)C[C@H](NC(=O)[C@H](C(C)C)N1CCC3(CN(C(=O)C#CC(C)(C)N(C)C)C3)C1=O)C(=O)N1CCC[C@H](N1)C(=O)OCC(C)(C)C2 (atropisomer, axis not shown) [Example A323] too.
### Response > 10 µM

### Prompt Queued: C=CC(=O)N1C[C@H](C)[C@H](C(=O)N(C)[C@H](C(=O)N[C@H]2Cc3cc(O)cc(c3)-c3ccc4c(c3)c(c(-c3cccnc3COC)n4CC)CC(C)(C)COC(=O)[C@@H]3CCCN(N3)C2=O)C2CCCC2)C1 [Example A057]
### Response 1 to 10 µM
